assay: chemical genetic growth profiling, strain panel (AID 1159580);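 further: tested at 20 µM; growth read once vehicle control cultures reached saturation at 30 °C; 1 = growth at the plate median or of vehicle wells; lower values mean less growth of the strain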; settings: S. cerevisiae deletion strains, growth OD, locus YHR129C, strain ARP1, hits give low values
The whole screen tested about 5,500 compounds, of which about 2,000 (36%) were called active. Not shown: some 18% with an inconclusive outcome. The list shows a part of the results.
Would you mind telling me the reported normalized growth of each entry?
Field format: numeric only.

Lookup: Supply reported normalized growth belonging to this compound: C[C@@H]1CC[C@@]2(OC1)O[C@H]1CC3C4CC[C@H]5C[C@@H](O)CC[C@]5(C)C4CC[C@]3(C)[C@H]1[C@@H]2C (stereo not given in full)
Found: 0.991

Lookup: Supply reported normalized growth belonging to this compound: "O=c1cc(-c2ccc(O)cc2)oc2cc(O[C@@H]3O[C@H](CO)[C@@H](O)[C@H](O)[C@H]3O)cc(O)c12"
Found: 0.988

Lookup: Supply reported normalized growth belonging to this compound: CC(=O)OC(C)C[N+](C)(C)C (stereo not given)
Found: 1

Lookup: Supply reported normalized growth belonging to this compound: "CCCCCc1c2c(cc(O)c1C(=O)O)OC(=O)c1c(cc(OC)cc1C(=O)CCCC)O2"
Found: 0.993

Lookup: Supply reported normalized growth belonging to this compound: "CN1C(C)(C)CCCC1(C)C"
Found: 1.01
